The compounds listed here are annotated with their MIC.
tested on: Escherichia coli; experiment: Antibacterial activity against Escherichia coli ATCC 25922 assessed as inhibition of bacterial growth incubated for 18 hrs by two fold serial dilution assay; format: functional
Residues, ends and D or L forms follow the SMILES beside them.
Give the value, in units of µM, as a plain number.

// worked examples, MIC included
1) CCCCCCCCCCCCCC(=O)N[C@@H](CCCCN)C(=O)N[C@@H](CCCCN)C(=O)N[C@@H](C)C(=O)N[C@@H](CC(C)C)C(=O)N[C@@H](CCCCN)C(=O)N[C@@H](CC(C)C)C(=O)N[C@@H](C)C(=O)N[C@@H](CCCCN)C(=O)N[C@@H](CCCCN)C(=O)N1CCC[C@H]1C(=O)N[C@@H](CC(C)C)C(=O)N[C@@H](CCCCN)C(=O)N[C@@H](CC(C)C)C(=O)N[C@@H](CC(C)C)C(=O)N[C@@H](CCCCN)C(N)=O (HELM PEPTIDE1{[CCCCCCCCCCCCCC(=O)[*:2]].K.K.A.L.K.L.A.K.K.P.L.K.L.L.K.[am]}$$$$V2.0); 5
2) CCCCCCCCCC(=O)N[C@@H](CCCCN)C(=O)N[C@@H](CCCCN)C(=O)N[C@@H](C)C(=O)N[C@@H](CC(C)C)C(=O)N[C@@H](CCCCN)C(=O)N[C@@H](CC(C)C)C(=O)N[C@@H](C)C(=O)N[C@@H](CCCCN)C(=O)N[C@@H](CCCCN)C(=O)N1CCC[C@H]1C(=O)N[C@@H](CC(C)C)C(=O)N[C@@H](CCCCN)C(=O)N[C@@H](CC(C)C)C(=O)N[C@@H](CC(C)C)C(=O)N[C@@H](CCCCN)C(N)=O (HELM PEPTIDE1{[CCCCCCCCCC(=O)[*:2]].K.K.A.L.K.L.A.K.K.P.L.K.L.L.K.[am]}$$$$V2.0); 40
3) CCCCCCCCCCCCCCCC(=O)N[C@@H](CCCCN)C(=O)N[C@@H](CCCCN)C(=O)N[C@@H](C)C(=O)N[C@@H](CC(C)C)C(=O)N[C@@H](CCCCN)C(=O)N[C@@H](CC(C)C)C(=O)N[C@@H](C)C(=O)N[C@@H](CCCCN)C(=O)N[C@@H](CCCCN)C(=O)N1CCC[C@H]1C(=O)N[C@@H](CC(C)C)C(=O)N[C@@H](CCCCN)C(=O)N[C@@H](CC(C)C)C(=O)N[C@@H](CC(C)C)C(=O)N[C@@H](CCCCN)C(N)=O (HELM PEPTIDE1{[CCCCCCCCCCCCCCCC(=O)[*:2]].K.K.A.L.K.L.A.K.K.P.L.K.L.L.K.[am]}$$$$V2.0); 5

*Q* Given CCCCCCCCCCCC(=O)N[C@@H](CCCCN)C(=O)N[C@@H](CCCCN)C(=O)N[C@@H](C)C(=O)N[C@@H](CC(C)C)C(=O)N[C@@H](CCCCN)C(=O)N[C@@H](CC(C)C)C(=O)N[C@@H](C)C(=O)N[C@@H](CCCCN)C(=O)N[C@@H](CCCCN)C(=O)N1CCC[C@H]1C(=O)N[C@@H](CC(C)C)C(=O)N[C@@H](CCCCN)C(=O)N[C@@H](CC(C)C)C(=O)N[C@@H](CC(C)C)C(=O)N[C@@H](CCCCN)C(N)=O (HELM PEPTIDE1{[CCCCCCCCCCCC(=O)[*:2]].K.K.A.L.K.L.A.K.K.P.L.K.L.L.K.[am]}$$$$V2.0) , state its recorded MIC.
*A* 10

*Q* Given NCC[C@H](O)C(=O)N[C@@H]1C[C@H](N)[C@@H](O[C@H]2O[C@H](CN)[C@@H](O)[C@H](O)[C@H]2O)[C@H](O)[C@H]1O[C@H]1O[C@H](CO)[C@@H](O)[C@H](N)[C@H]1O [AMIKACIN] , state its recorded MIC.
*A* 5
